- Test Method Notes: Cytotoxicity assay (WST-1), endothelial cell
- Cond: human, human aortic endothelial cells (HAEC)
Measurement Label: CC50 at 24 h (µM)

• CN1C(=O)C2CSSC1(C)C(=O)N2Cc1nc2ccccc2s1 (stereo not shown) [Compound 15] = 114

---

- Test system: human pulmonary artery smooth muscle cell (PASMC)
- Test Method Notes: PDGF-induced proliferation assay, PASMC (PrxII siRNA)
- Assay type: cell-based
- Cond: 10 nM, PDGF-BB 25 ng/mL, percent of untreated control
- Procedure: HASMCs and PASMCs were transfected with a PrxII-specific siRNA using RNAi MAX transfection reagent according to manufacturer's protocol. After 24 hours, transfected cells (3,000 cells/well) were seeded in a 96-well culture plate. […] The degree of cell proliferation was measured using the Cell Titer-GLO kit ([…]). Data are the percent of luminescence intensity averaged from three replicate wells versus that of untreated control group. […]
Measured Degree of PASMC proliferation, listed per entry for reference.
Measurement Label: Degree of PASMC proliferation (%)

* CN1CCN2C(=O)C3CSSC2(C1)C(=O)N3C (stereo not shown) [Compound 23] | 32.9
* O=C1C2CSSC3(COCCN13)C(=O)N2Cc1ccccc1 (stereo not shown) [Compound 8] | 24.8
* CN1C(=O)C2(C)SSCC1C(=O)N2C (stereo not shown) [Compound 1] | 29.4
* CCN1C(=O)C2(C)SSCC1C(=O)N2CC (stereo not shown) [Compound 20] | 31.6
* CCN1C(=O)C23COCCN2C(=O)C1CSS3 (stereo not shown) [Compound 10] | 44.1
* CN1C(=O)C2CSSC1(C)C(=O)N2Cc1ccc2ccccc2n1 (stereo not shown) [Compound 5] | 37.5
* CN1CCN2C(=O)C3CSSC2(C1)C(=O)N3Cc1ccccc1 (stereo not shown) [Compound 21] | 18.7

Data provenance is patent US20260008784A1.
